Cited source: PubChem BioAssay (NCI)

Tested on: SF-539 CNS
test_method_notes: NCI-60 one-dose screen, 48 h (100 = growth as untreated, 0 = no growth, -100 = all killed)
recorded_conditions: 10 µM unless noted
The panel holds about 83,000 compounds, 20% with a hit somewhere; the sample as a whole holds those more often.
property_label: growth (%)
Just the number please, in %, no unit attached.

Use the examples below as a reference point.
N#CC(N)c1ccccc1 (stereo unspecified); 103
C=C[Se]CC(=O)/C=C/c1ccccc1; 95.2
N#CCCc1ccccc1; 96.2

QUERY: Record request: growth value, item CCCC[C@H]1C(=O)O[C@H](C)[C@H](NC(=O)c2cccc(NC=O)c2O)C(=O)O[C@@H](C)[C@@H]1OC(=O)CC(C)C
RESULT: 39.3

QUERY: Now try O=S(=O)(c1ccc(O)cc1)c1ccccc1O .
RESULT: 103

QUERY: Now the same for CNC(=O)Oc1ccc(Cl)cc1SSc1cc(Cl)ccc1OC(=O)NC
RESULT: 98.2

QUERY: Try this molecule too: CC[C@H](CC[C@@H](C)[C@H]1CC[C@H]2[C@@H]3CC[C@H]4C[C@]5(CC[C@]4(C)[C@H]3CC[C@]12C)OO[C@](C)(C(F)(F)F)O5)C(C)C
RESULT: 97.8

QUERY: Same question, Cc1nnc([S-])o1.[Au+].c1ccc([PH+](c2ccccc2)c2ccccc2)cc1 this time
RESULT: 67.8

QUERY: Please do the same for O=S1(=O)OCCO1 as well.
RESULT: 95.1

QUERY: Please answer likewise for Cn1cc(-c2csc(-c3cn(CCCCN4CCOCC4)c4ccc(F)cc34)n2)c2cccnc21
RESULT: 69.7

QUERY: And what about the molecule CCC(=O)C(CC(C)N1CCCCCC1)(c1ccccc1)c1ccccc1 (stereo unspecified) ?
RESULT: 98.6

QUERY: Another molecule to look at: CCC(=O)C(CC(C)[N+](C)(C)C)(c1ccccc1)c1ccccc1 (stereo unspecified)
RESULT: 96.6
